Ref: ChEMBL document CHEMBL1152523

Assay: Displacement of [3H]AMPA from AMPA receptor in rat cortical membrane
Format: cell membranes
pIC50: −log10 of the molar value.
measured.parameter: pIC50

molecule="NC(Cc1cc(Cl)c(Cl)c(-c2cccc(C(=O)O)c2)c1)C(=O)O (racemic)" measured_parameter=pIC50 val="< 4.00"

Endpoint output: pIC50 of NC(Cc1cc(Cl)c(Cl)c(-c2ccc(C(=O)O)cc2)c1)C(=O)O (racemic) . Value?
4.38

Endpoint output: pIC50 of NC(Cc1cc(Cl)c(Cl)c(-c2cccc([N+](=O)[O-])c2)c1)C(=O)O (racemic) . Value?
< 4.00

Endpoint output: pIC50 of NC(Cc1cc(Cl)c(Cl)c(-c2ccccc2C(=O)O)c1)C(=O)O (racemic) . Value?
< 4.00

Endpoint output: pIC50 of NC(Cc1cccc(-c2ccccc2C(=O)O)c1)C(=O)O (racemic) . Value?
< 4.00

Endpoint output: pIC50 of NC(Cc1cccc(Cc2cccc(C(=O)O)c2)c1)C(=O)O (racemic) . Value?
< 4.00

Endpoint output: pIC50 of NC(Cc1cccc(-c2cccc(C(=O)O)c2)c1)C(=O)O (racemic) . Value?
< 4.00

Endpoint output: pIC50 of NC(Cc1cccc(Cc2ccc(C(=O)O)cc2)c1)C(=O)O (racemic) . Value?
< 4.00

Endpoint output: pIC50 of NC(Cc1cc(Cl)c(Cl)c(-c2ccccc2O)c1)C(=O)O (racemic) . Value?
4.07

---

In this section we review reported pKi values for a set of molecules.
Target: Glutamate receptor ionotropic, kainate 1 (Rattus norvegicus)
Sequence (P22756 whole entry): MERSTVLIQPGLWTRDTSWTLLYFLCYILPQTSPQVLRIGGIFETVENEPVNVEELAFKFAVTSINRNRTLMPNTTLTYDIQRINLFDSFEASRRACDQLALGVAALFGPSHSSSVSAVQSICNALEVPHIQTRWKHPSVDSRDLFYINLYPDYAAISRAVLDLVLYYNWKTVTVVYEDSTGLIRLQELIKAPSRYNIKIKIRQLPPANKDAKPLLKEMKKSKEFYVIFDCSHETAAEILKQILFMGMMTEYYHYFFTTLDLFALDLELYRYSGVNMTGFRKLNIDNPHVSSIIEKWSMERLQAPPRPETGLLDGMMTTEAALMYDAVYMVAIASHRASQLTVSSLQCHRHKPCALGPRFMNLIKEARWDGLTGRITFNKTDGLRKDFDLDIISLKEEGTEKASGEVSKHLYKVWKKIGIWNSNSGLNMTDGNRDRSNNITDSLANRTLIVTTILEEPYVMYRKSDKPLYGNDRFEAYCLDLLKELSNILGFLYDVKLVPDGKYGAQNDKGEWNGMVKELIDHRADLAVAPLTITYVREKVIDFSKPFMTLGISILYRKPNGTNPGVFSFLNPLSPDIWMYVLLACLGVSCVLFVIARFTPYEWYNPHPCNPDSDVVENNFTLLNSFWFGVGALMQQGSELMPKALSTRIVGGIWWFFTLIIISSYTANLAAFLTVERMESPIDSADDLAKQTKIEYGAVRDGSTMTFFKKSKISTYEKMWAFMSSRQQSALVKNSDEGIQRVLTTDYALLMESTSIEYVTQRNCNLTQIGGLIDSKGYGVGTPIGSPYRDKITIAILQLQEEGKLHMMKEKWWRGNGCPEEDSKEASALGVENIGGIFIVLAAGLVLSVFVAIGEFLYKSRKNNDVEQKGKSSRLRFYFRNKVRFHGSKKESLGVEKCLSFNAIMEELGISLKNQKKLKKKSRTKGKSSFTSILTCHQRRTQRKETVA
Assay: Displacement of [3H]SYM2081 from rat recombinant iGluR5-1b expressed in baculovirus-infected insect Sf9 cells
pKi: −log10 of the molar value.

molecule="NC(Cc1cccc(Cc2ccccc2C(=O)O)c1)C(=O)O (racemic)" val="≤ 4.00"
molecule=N[C@@H](Cc1cccc(-c2cccc(C(=O)O)c2)c1)C(=O)O val=5.39

Endpoint output: pKi of NC(Cc1cc(Cl)c(Cl)c(-c2ccc([N+](=O)[O-])cc2)c1)C(=O)O (racemic) . Value?
< 4.00

Endpoint output: pKi of NC(Cc1cccc(-c2ccccc2C(=O)O)c1)C(=O)O (racemic) . Value?
< 4.00

---

Test: Displacement of [3H]AMPA from AMPA receptor in rat cortical membrane
Format: cell membranes
measured.parameter: IC50 (µM)
Expressed in µM, but write only the number.

molecule="NC(Cc1cccc(-c2ccc(C(=O)O)cc2)c1)C(=O)O (racemic)" measured_parameter=IC50 measurement_units=µM val=41

Please look at the following molecule next.
Endpoint output: IC50 of NC(Cc1cc(Cl)c(Cl)c(-c2ccc(C(=O)O)s2)c1)C(=O)O (racemic) . Value?
61

---

Assay: Displacement of [3H]AMPA from AMPA receptor in rat cortical membrane
Type: cell membranes
In this section we review reported IC50 values for a set of compounds.

For orientation, consider the following solved cases.
compound="NC(Cc1cc(Cl)c(Cl)c(-c2ccccc2-c2nnn[nH]2)c1)C(=O)O (racemic)" val="> 100 µM"
compound="NC(Cc1cccc(Cc2ccccc2C(=O)O)c1)C(=O)O (racemic)" val="> 100 µM"
compound="NC(Cc1cc(Cl)c(Cl)c(-c2ccc(O)cc2)c1)C(=O)O (racemic)" val="33 µM"
compound="NC(Cc1cc(Cl)c(Cl)c(-c2cccc(-c3nnn[nH]3)c2)c1)C(=O)O (racemic)" val="> 100 µM"
compound="NC(Cc1cc(Cl)c(Cl)c(-c2ccc(-c3nnn[nH]3)cc2)c1)C(=O)O (racemic)" val="> 100 µM"
compound="NC(Cc1cc(Cl)c(Cl)c(-c2ccc([N+](=O)[O-])cc2)c1)C(=O)O (racemic)" val="> 100 µM"

Endpoint output: IC50 of CC(C)(C)c1onc(OCP(=O)(O)O)c1C[C@H](N)C(=O)O . Value?
16 µM

Endpoint output: IC50 of NC(Cc1cccc(-c2ccc(CC(=O)O)cc2)c1)C(=O)O (stereo not given) . Value?
> 100 µM

Endpoint output: IC50 of NC(Cc1cccc(-c2cccc(CC(=O)O)c2)c1)C(=O)O (racemic) . Value?
> 100 µM

Endpoint output: IC50 of NC(Cc1cc(Cl)c(Cl)c(-c2cccc(O)c2)c1)C(=O)O (racemic) . Value?
4.6 µM
